system: M14; assay: NCI tumour cell line growth inhibition, 48 h
The source made the active and inactive calls. No stated cut-off is given here; in the data, active = GI50 up to about 1.1 µM and inactive = higher.
Result Type: GI50

{"columns": ["Compound", "Observed Result"],
 "data": [
  ["C[C@@H]1C(=O)CC2(O)[C@@]13C[C@@H](OC(=O)[C@@H]3O)[C@@H](C)[C@@]21COC1=O (stereo partly specified)", "> 100 µM (inactive)"],
  ["Nc1nc(SCCc2ccccc2)c2nc[nH]c2n1", "71.3 µM (inactive)"],
  ["COc1cc(C2SCC(=O)N2c2ccc(-c3ccc(-n4c(-c5ccccc5)nc5ccccc5c4=O)cc3)cc2)cc(OC)c1OC (stereo unspecified)", "20.5 µM (inactive)"],
  ["c1cc(C2=NCCO2)c2ccsc2c1", "> 100 µM (inactive)"],
  ["COc1ccc(O)c(C(=O)CCC(=O)O)c1", "> 10 µM (inactive)"],
  ["COc1ccc(OC)c(SC(CC(=O)c2ccccc2)c2ccccc2)c1 (stereo unspecified)", "16.7 µM (inactive)"]
]}
